Where these numbers come from: patent US20100004277A1

Test system: sar1^ts mutant yeast strain
Experiment: sar1^ts mutant growth rescue assay (OD600)
Type: cell-based
Settings: 35° C., 72 hours, 0.05 to 50 μM
outcomeMeasure: rescue of the sar1^ts mutant phenotype

Observe how each entry below is paired with its result.
[[record]]
compound = "C[C@@H]1C[C@@H]([C@H](O)CC2CC(=O)NC(=O)C2)C(=O)[C@@H](C)C1 [cycloheximide, reference compound]"
result = "rescue"

[[record]]
compound = "O=C1CC(c2cccc(Cl)c2)c2cc3c4c(cccc4c2N1)CC3 (centres unmarked)"
result = "not detected"

[[record]]
compound = "N/C(=N\\C(=O)CCc1ccco1)Nc1nc2ccccc2o1"
result = "rescue"

[[record]]
compound = "C#Cc1cccc(C2CC(=O)Nc3c2ccc2c3CCC2)c1 (centres unmarked)"
result = "not detected"


Q: State the recorded rescue of the sar1^ts mutant phenotype for this entry: COc1ccc(OC)c(C2CC(=O)Nc3c2ccc2ccccc32)c1 (centres unmarked)
Result: not detected
